measured.on: TYK2 (Homo sapiens (Human), UniProt P29597)
Sequence (P29597 897-1176): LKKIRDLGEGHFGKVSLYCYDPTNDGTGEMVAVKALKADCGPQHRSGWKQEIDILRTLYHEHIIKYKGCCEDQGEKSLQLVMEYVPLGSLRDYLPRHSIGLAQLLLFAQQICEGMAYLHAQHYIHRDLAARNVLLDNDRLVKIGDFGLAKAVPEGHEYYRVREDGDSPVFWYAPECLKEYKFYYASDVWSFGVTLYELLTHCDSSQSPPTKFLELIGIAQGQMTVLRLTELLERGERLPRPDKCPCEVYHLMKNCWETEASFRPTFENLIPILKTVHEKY
assay.remarks: JAK1, JAK2 and TYK2 Inhibition Assay Protocol (Example A): TYK2 kinase domain, Caliper LabChip peptide phosphorylation
reported.conditions: isolated TYK2 kinase domain, 1 nM enzyme, 25 μM ATP, Morrison tight binding model
Record form. Attribute: pKi. Fill in for each entry.
pKi is defined as minus the log10 of a concentration measured in mol/L.

[in] Given the entry `N#Cc1cccc(F)c1-c1nc2c(C#N)cnc(Nc3cc(N)ncn3)c2s1` , report its measured pKi.
[out] 9.52

[in] Given the entry `Cc1cc(Nc2nccc3nc(-c4c(Cl)cc(CO)cc4Cl)sc23)ncn1` , report its measured pKi.
[out] 9.00

[in] Given the entry `O=C(Nc1nccc2nc(-c3c(F)cccc3Cl)sc12)NC1CC1` , report its measured pKi.
[out] 8.85

[in] Given the entry `CCc1cc(Nc2nccc3nc(-c4c(Cl)cc(C(N)=O)cc4Cl)sc23)ncn1` , report its measured pKi.
[out] 8.80

[in] Given the entry `Cc1cc(Nc2nccc3nc(-c4ccccc4Cl)sc23)nc(C)n1` , report its measured pKi.
[out] 8.07
